Test: Cytotoxicity against human PM1 cells harboring CCR5 co-receptor by WST-8 assay
Assay type: cell-based
Cut-off 40 µM on CC50: below means Satisfied, at or above means Not satisfied.

Consider the worked cases shown below.
compound="Cc1cc(C)c2cc(C(=O)NC3CC4(CCCCC4)NC4(CCCCC4)C3)[nH]c2c1 (centres undefined)" class=Satisfied
compound=CCOC(=O)C1CCN(C(=O)c2cc3c(F)c(Cl)ccc3[nH]2)CC1 class="Not satisfied"
compound="Cn1c(C(=O)NC2CC3(CCCCC3)NC3(CCCCC3)C2)cc2ccc(Cl)cc21 (centres undefined)" class=Satisfied
compound="O=C(NC1CC2(CCCCC2)NC2(CCCCC2)C1)c1cc2ccc(Cl)cc2[nH]1 (centres undefined)" class=Satisfied

Is the reported CC50 for Cn1c(C(=O)NC2CC(C)(C)NC(C)(C)C2)cc2c(F)c(Cl)ccc21 strictly below 40 µM? Satisfied

Next up: CCOC(=O)C1CCN(C(=O)c2cc3ccc(Cl)cc3n2C)CC1 Not satisfied

Next up: CCOC(=O)C1CCN(C(=O)c2cc3c(C)cc(C)cc3[nH]2)CC1 Not satisfied

Next up: Cn1c(C(=O)NC2CC(C)(C)NC(C)(C)C2)cc2cc(F)c(Cl)cc21 Satisfied

Next up: CCOC(=O)C1CCN(C(=O)c2cc3c(F)c(Cl)ccc3n2C)CC1 Not satisfied

Next up: CCOC(=O)C1CCN(C(=O)c2cc3cc(F)c(Cl)cc3[nH]2)CC1 Not satisfied

Next up: CC1(C)CC(NC(=O)C(=O)Nc2ccc(Cl)cc2)CC(C)(C)N1 Not satisfied

Next up: CC1(C)CC(NC(=O)c2cc3ccc(Cl)cc3[nH]2)CC(C)(C)N1 Satisfied

Next up: CCOC(=O)C1CCN(C(=O)c2cc3c(C)cc(C)cc3n2C)CC1 Not satisfied

Next up: Cn1c(C(=O)NC2CC(C)(C)NC(C)(C)C2)cc2ccc(Cl)cc21 Satisfied

====

Flu intensity for assorted compounds
Molecular target: UniProtKB Q6QLK5
Assay: Induction of conformational changes in HIV1 cYTA48P envelope glycoprotein gp120 infected in PM1/CCR5 cells assessed as mean fluorescence intensity using CD4i monoclonal antibody 4C11 at 100 uM after 15 mins by FACS analysis
Format: cell-based
Give the value as a plain number.

Below: 5 compounds and their reported Flu intensity.
compound=CC1(C)CC(NC(=O)C(=O)Nc2ccc(Cl)cc2)CC(C)(C)N1 measured=8.91
compound=Cc1cc(C)c2cc(C(=O)NC3CC(C)(C)NC(C)(C)C3)[nH]c2c1 measured=8.08
compound=CCOC(=O)C1CCN(C(=O)c2cc3c(F)c(Cl)ccc3n2C)CC1 measured=8.63
compound=CCOC(=O)C1CCN(C(=O)c2cc3cc4c(cc3[nH]2)OCO4)CC1 measured=26.2
compound="Cn1c(C(=O)NC2CC3(CCCCC3)NC3(CCCCC3)C2)cc2c(F)c(Cl)ccc21 (stereo unspecified)" measured=6.45

What Flu intensity appears in the records for this compound with UniProtKB Q6QLK5? Cc1cc(C)c2cc(C(=O)NC3CC4(CCCCC4)NC4(CCCCC4)C3)n(C)c2c1 (stereo unspecified) 7.96

Next up: CCOC(=O)C1CCN(C(=O)CNc2ccc(Cl)cc2)CC1 23.8

Next up: O=C(NC1CC2(CCCCC2)NC2(CCCCC2)C1)c1cc2cc3c(cc2[nH]1)OCO3 (stereo unspecified) 36.4

Next up: Cc1cc(C)c2cc(C(=O)NC3CC4(CCCCC4)NC4(CCCCC4)C3)[nH]c2c1 (stereo unspecified) 5.27

Next up: CCOC(=O)C1CCN(C(=O)CNc2ccc3c(c2)OCO3)CC1 18.5

====

Target: Envelope glycoprotein gp160 (Human immunodeficiency virus 1)
Assay: Induction of conformational changes in HIV1 cYTA48P envelope glycoprotein gp120 infected in PM1/CCR5 cells assessed as mean fluorescence intensity using CD4i monoclonal antibody 4C11 at 100 uM after 15 mins by FACS analysis
Format: cell-based
assay.endpoint: Flu intensity
Give the value as a plain number.

Below: 2 compounds and their reported Flu intensity.
compound=CC1(C)CC(NC(=O)c2cc3cc4c(cc3[nH]2)OCO4)CC(C)(C)N1 measured=30.7
compound=Cn1c(C(=O)NC2CC(C)(C)NC(C)(C)C2)cc2c(F)c(Cl)ccc21 measured=6.74

Which measured Flu intensity value corresponds to O=C(CNc1ccc2c(c1)OCO2)NC1CC2(CCCCC2)NC2(CCCCC2)C1 (stereo not drawn) ? 28.7

====

Target: Envelope glycoprotein gp160 (Human immunodeficiency virus 1) (UniProt Q6QLK5)
Sequence (Q6QLK5 1-814): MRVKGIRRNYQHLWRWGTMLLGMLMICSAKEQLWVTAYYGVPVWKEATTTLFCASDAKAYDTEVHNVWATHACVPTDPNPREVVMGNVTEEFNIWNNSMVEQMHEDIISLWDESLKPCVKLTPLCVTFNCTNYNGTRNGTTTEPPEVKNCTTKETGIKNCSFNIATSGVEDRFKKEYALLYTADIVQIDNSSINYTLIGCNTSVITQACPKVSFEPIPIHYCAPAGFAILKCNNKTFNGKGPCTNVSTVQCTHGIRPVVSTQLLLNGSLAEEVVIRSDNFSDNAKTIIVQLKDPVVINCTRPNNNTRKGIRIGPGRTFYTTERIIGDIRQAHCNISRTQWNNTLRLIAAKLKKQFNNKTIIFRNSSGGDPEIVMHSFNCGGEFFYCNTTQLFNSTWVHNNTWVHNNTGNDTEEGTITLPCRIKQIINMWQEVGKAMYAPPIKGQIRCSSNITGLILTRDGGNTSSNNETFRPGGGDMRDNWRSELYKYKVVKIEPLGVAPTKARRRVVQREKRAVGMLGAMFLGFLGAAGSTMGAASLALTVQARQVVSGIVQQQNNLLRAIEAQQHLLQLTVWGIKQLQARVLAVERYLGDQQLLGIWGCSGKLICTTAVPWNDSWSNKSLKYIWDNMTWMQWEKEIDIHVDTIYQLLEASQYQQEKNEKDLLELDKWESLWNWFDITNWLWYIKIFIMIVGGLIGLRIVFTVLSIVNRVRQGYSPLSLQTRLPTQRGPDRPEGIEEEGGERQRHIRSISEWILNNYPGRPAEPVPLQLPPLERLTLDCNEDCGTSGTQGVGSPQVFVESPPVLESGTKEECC
Test: Induction of conformational changes in HIV1 cYTA48P envelope glycoprotein gp120 infected in PM1/CCR5 cells assessed as mean fluorescence intensity using CD4i monoclonal antibody 4C11 at 100 uM after 15 mins by FACS analysis relative to NBD-556
Type: cell-based
assay.endpoint: fold change (FC)

Which measured fold change (FC) value corresponds to CCOC(=O)C1CCN(C(=O)c2cc3cc4c(cc3[nH]2)OCO4)CC1 ? 0.13

Next up: O=C(CNc1ccc2c(c1)OCO2)NC1CC2(CCCCC2)NC2(CCCCC2)C1 (stereo unspecified) 0.19

Next up: Cc1cc(C)c2cc(C(=O)NC3CC(C)(C)NC(C)(C)C3)[nH]c2c1 0.28

====

Assay: Cytotoxicity against human PM1 cells harboring CCR5 co-receptor by WST-8 assay
Assay type: cell-based
CC50 for assorted compounds
# value in µM; strip the unit string

Below: 8 compounds and their reported CC50.
compound=CCOC(=O)C1CCN(C(=O)c2cc3cc(F)c(Cl)cc3n2C)CC1 measured=41.1
compound="O=C(NC1CC2(CCCCC2)NC2(CCCCC2)C1)c1cc2c(F)c(Cl)ccc2[nH]1 (stereo not given)" measured=11.4
compound="O=C(NC1CC2(CCCCC2)NC2(CCCCC2)C1)c1cc2cc(F)c(Cl)cc2[nH]1 (stereo not given)" measured=11.3
compound=Cc1cc(C)c2cc(C(=O)NC3CC(C)(C)NC(C)(C)C3)[nH]c2c1 measured=60.3
compound="Cn1c(C(=O)NC2CC3(CCCCC3)NC3(CCCCC3)C2)cc2cc(F)c(Cl)cc21 (stereo not given)" measured=29.4
compound=CC1(C)CC(NC(=O)c2cc3cc(Cl)ccc3[nH]2)CC(C)(C)N1 measured=48.6
compound="Cn1c(C(=O)NC2CC3(CCCCC3)NC3(CCCCC3)C2)cc2c(F)c(Cl)ccc21 (stereo not given)" measured=12.3
compound=CC1(C)CC(NC(=O)c2cc3c(F)c(Cl)ccc3[nH]2)CC(C)(C)N1 measured=19.4

Which measured CC50 value corresponds to CC1(C)CC(NC(=O)c2cc3cc(F)c(Cl)cc3[nH]2)CC(C)(C)N1 ? 103

Next up: CCOC(=O)C1CCN(C(=O)c2cc3ccc(Cl)cc3[nH]2)CC1 52.6

Next up: Cn1c(C(=O)NC2CC(C)(C)NC(C)(C)C2)cc2cc(Cl)ccc21 37.5

====

Flu intensity for assorted molecules
Biological target: UniProt:Q6QLK5
Assay: Induction of conformational changes in HIV1 cYTA48P envelope glycoprotein gp120 infected in PM1/CCR5 cells assessed as mean fluorescence intensity using CD4i monoclonal antibody 4C11 at 100 uM after 15 mins by FACS analysis
Type: cell-based
Give the value as a plain number.

molecule=CCOC(=O)C1CCN(C(=O)c2cc3c(F)c(Cl)ccc3[nH]2)CC1 measured=8.24

Which measured Flu intensity value corresponds to CC1(C)CC(NC(=O)c2cc3cc(Cl)ccc3[nH]2)CC(C)(C)N1 ? 8.7

Next up: Cc1cc(C)c2cc(C(=O)NC3CC(C)(C)NC(C)(C)C3)n(C)c2c1 7.61

Next up: CC1(C)CC(NC(=O)CNc2ccc(Cl)cc2)CC(C)(C)N1 30.2

Next up: CC1(C)CC(NC(=O)c2cc3c(F)c(Cl)ccc3[nH]2)CC(C)(C)N1 8.55

Next up: CCOC(=O)C1CCN(C(=O)c2cc3c(C)cc(C)cc3[nH]2)CC1 8.14

Next up: CC1(C)CC(NC(=O)CNc2ccc3c(c2)OCO3)CC(C)(C)N1 23.4

Next up: O=C(CNc1ccc(Cl)cc1)NC1CC2(CCCCC2)NC2(CCCCC2)C1 (stereo unspecified) 19.6

====

Target: Envelope glycoprotein gp160 (Human immunodeficiency virus 1) (UniProt Q6QLK5)
Test: Induction of conformational changes in HIV1 cYTA48P envelope glycoprotein gp120 infected in PM1/CCR5 cells assessed as mean fluorescence intensity using CD4i monoclonal antibody 4C11 at 100 uM after 15 mins by FACS analysis relative to NBD-556
Type: cell-based
fold change (FC) below 0.4 gives FALSE; fold change (FC) at or above it gives TRUE.

compound=CC1(C)CC(NC(=O)CNc2ccc3c(c2)OCO3)CC(C)(C)N1 class=FALSE

API: above_or_equal(metric=fold change (FC), cutoff=0.4) for item CC1(C)CC(NC(=O)c2cc3cc(Cl)ccc3[nH]2)CC(C)(C)N1 TRUE

Next up: CC1(C)CC(NC(=O)CNc2ccc(Cl)cc2)CC(C)(C)N1 FALSE
